Here the recorded pKi is given for each entry.
biological target: human FLAP (Homo sapiens (Human), UniProt P20292); assay: FLAP binding assay (HTRF format); conditions: read-out: FLAP Binding wild type HTRF Ki
Sequence (P20292 whole entry): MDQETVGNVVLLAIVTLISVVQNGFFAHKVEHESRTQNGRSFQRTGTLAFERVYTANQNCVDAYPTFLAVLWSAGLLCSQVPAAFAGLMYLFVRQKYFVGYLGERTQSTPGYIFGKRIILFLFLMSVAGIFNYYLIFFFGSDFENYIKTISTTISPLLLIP
pKi: −log10 of the molar value. Counter-ions that a name gives are not always drawn.

| compound | qualifier sign | pKi |
| --- | --- | --- |
| CC(C)(C)[C@H](CO)NS(=O)(=O)c1ccccc1-c1ccc(-c2cnc(N)nc2)c(F)c1 [Example 269, trifluoroacetic acid salt] | = | 7.82 |
| Nc1ncc(-c2ccc(-c3cccnc3S(=O)(=O)C3CCCCC3)cc2F)cn1 [Example 807, hydrochloride] | = | 8.24 |
| Nc1ncc(-c2ccc(-c3ccccc3S(=O)(=O)N3CCN(CCO)CC3)cc2F)cn1 [Example 282, trifluoroacetic acid salt] | = | 6.12 |
| Nc1ncc(-c2ccc(-c3ccccc3S(=O)(=O)N3CCCC(F)(F)C3)cn2)cn1 [Example 679, trifluoroacetic acid salt] | = | 6.88 |
| Nc1ncc(-c2ccc(-c3cccnc3S(=O)(=O)C3CCOCC3)cc2F)cn1 [Example 831, formic acid salt] | = | 6.88 |
| Nc1ncc(-c2ccc(-c3cccnc3S(=O)(=O)C3CCNCC3)cc2F)cn1 [Example 827, formic acid salt] | < | 5.00 |
| CC(C)(C)[C@@H](CO)NS(=O)(=O)c1ccccc1-c1ccc(-c2cnc(N)nc2)c(F)c1 [Example 270, trifluoroacetic acid salt] | = | 7.24 |

* * *

biological target: human FLAP (Homo sapiens (Human)); test: FLAP binding assay (HTRF format); conditions: human FLAP wild type, HTRF format; average of two plates, duplicates

| smiles entry | Ki [nM] |
| --- | --- |
| CN1CCCC[C@@H](NS(=O)(=O)c2ccccc2-c2ccc(-c3cnc(N)cn3)c(F)c2)C1=O | 59 |
| Nc1cnc(-c2ccc(-c3ccccc3S(=O)(=O)N3CCOCC3)cc2F)cn1 | 7 |
| CCNS(=O)(=O)c1cc(C(F)(F)F)ccc1-c1ccc(-c2cnc(N)nc2)c(F)c1 | 2 |
| Cc1ncc(CNS(=O)(=O)c2ccccc2-c2ccc(-c3cnc(N)cn3)c(F)c2)c(N)n1 | 18 |

* * *

molecular target: human FLAP (Homo sapiens (Human)); assay: FLAP binding assay (HTRF format); details: wild type FLAP, HTRF format
measurement kind: log10 Ki (log10 of the value in nM)

| compound | measurement target | log10 Ki |
| --- | --- | --- |
| Nc1cnc(-c2ccc(-c3ccccc3Oc3ccnc(N)n3)cc2F)cn1 [Example 533] | human FLAP (Homo sapiens (Human)) | 0.70 |
| CCN(CC)S(=O)(=O)c1ccccc1-c1ccc(-c2csc(N)n2)c(F)c1 [Example 578] | human FLAP (Homo sapiens (Human)) | 1.40 |
| Cc1ccnc(Oc2ccccc2-c2ccc(-c3cnc(N)nc3)c(F)c2)n1 [Example 546] | human FLAP (Homo sapiens (Human)) | 2.17 |
| Cc1nc(-c2ccc(-c3ccccc3S(=O)(=O)NC(C)(C)C)cc2F)cnc1N [Example 445] | human FLAP (Homo sapiens (Human)) | 0.00 |
| C[C@H](CO)NC(=O)c1ccccc1-c1ccc(-c2cnc(N)cn2)c(F)c1 [Example 512] | human FLAP (Homo sapiens (Human)) | 2.65 |
| CC(CO)NS(=O)(=O)c1ccccc1-c1ccc(-c2cnc(N)c(C#N)n2)c(F)c1 (stereo in doubt) [Example 410] | human FLAP (Homo sapiens (Human)) | 0.60 |

* * *

target: human FLAP (Homo sapiens (Human)); assay: FLAP binding assay (HTRF format); conditions: human FLAP wild type, HTRF format; average of two plates, duplicates
pKi: −log10 of the molar value. Where a name gives a salt, the structure may show the parent alone.
measurement kind: pKi

| compound | qualifier sign | quantitative readout |
| --- | --- | --- |
| Nc1cnc(-c2ccc(-c3ccccc3S(=O)(=O)NC3CCNCC3)cc2F)cn1 | = | 7.08 |
| CC(C)C[C@H](NS(=O)(=O)c1ccccc1-c1ccc(-c2cnc(N)cn2)c(F)c1)C(N)=O | = | 7.85 |
| Nc1cnc(-c2ccc(-c3ccccc3S(=O)(=O)N[C@H]3CCCNC3=O)cc2F)cn1 | = | 8.00 |
| Nc1cnc(-c2ccc(-c3ccccc3S(=O)(=O)NCC3(O)CCCCC3)cc2F)cn1 | = | 8.70 |
| Nc1cnc(-c2ccc(-c3ccccc3S(=O)(=O)C3CCC3)cc2F)cn1 | = | 8.00 |
| Nc1cnc(-c2ccc(-c3ccccc3S(=O)(=O)N3CCC(O)(C(F)(F)F)CC3)cc2F)cn1 | = | 9.00 |
| CC1(NS(=O)(=O)c2ccccc2-c2ccc(-c3ccc(N)nc3)c(F)c2)CCC1 | = | 9.00 |
| N#CCCNS(=O)(=O)c1ccccc1-c1ccc(-c2cnc(N)nc2)c(F)c1 | = | 7.42 |
| Nc1ncc(-c2ccc(-c3ccccc3S(=O)(=O)NCC3CC3)cc2F)cn1 | = | 8.05 |
| CCN(CC)S(=O)(=O)c1ccccc1-c1ccc(-c2cnc3[nH]ccc3n2)c(F)c1 | = | 9.00 |
| NC[C@H]1CCCN1S(=O)(=O)c1ccccc1-c1ccc(-c2cnc(N)cn2)c(F)c1 (stereo in doubt) | = | 7.12 |
| CC(C)N(CCO)S(=O)(=O)c1ccccc1-c1ccc(-c2cnc(N)nc2)c(F)c1 | = | 8.22 |
| CS(=O)(=O)c1ccccc1-c1ccc(-c2ncc(N)nc2C#N)c(F)c1 | < | 5.00 |
| CNS(=O)(=O)c1cc(C(F)(F)F)ccc1-c1ccc(-c2cnc(N)nc2)c(F)c1 | = | 8.40 |
| Nc1cnc(-c2ccc(-c3ccccc3S(=O)(=O)N[C@H](CO)Cc3ccccc3)cc2F)cn1 | = | 9.00 |
| Nc1ncc(-c2ccc(-c3ccccc3Sc3ccnc(N)n3)cc2F)cn1 [Example 335, formate salt] | = | 8.70 |

* * *

target: human FLAP (Homo sapiens (Human)); assay: FLAP binding assay (HTRF format); settings: human FLAP wild type, HTRF format; average of two plates, duplicates
pKi: −log10 of the molar value. Structures can show the parent of a compound that is named as a salt.
Entries annotated with measured pKi
measurement kind: pKi

| compound | measurement target | quantitative readout |
| --- | --- | --- |
| Nc1cnc(-c2ccc(-c3ccccc3Sc3ccnc(N)n3)cc2F)cn1 [Example 242, hydrochloride] | human FLAP (Homo sapiens (Human)) | 9.00 |
| Nc1cnc(-c2ccc(-c3ccccc3S(=O)(=O)N3CCC(F)(F)CC3)cc2F)cn1 | human FLAP (Homo sapiens (Human)) | 8.70 |
| NC(=O)CSc1ccccc1-c1ccc(-c2cnc(N)cn2)c(F)c1 | human FLAP (Homo sapiens (Human)) | 7.46 |
| Nc1ccc(-c2ccc(-c3ccccc3S(=O)(=O)N3CCCC3)cc2F)cn1 | human FLAP (Homo sapiens (Human)) | 7.09 |
| COC[C@H](C)NS(=O)(=O)c1ccccc1-c1ccc(-c2cnc(N)cn2)c(F)c1 | human FLAP (Homo sapiens (Human)) | 9.00 |
| CCN(CC)S(=O)(=O)c1ccccc1-c1ccc(-c2cnc(N)nc2)c(F)c1 [Example 300, trifluoroacetic acid salt] | human FLAP (Homo sapiens (Human)) | 7.89 |
| Nc1ccc(-c2ccc(-c3ccccc3S(=O)(=O)N3CCC(O)CC3)cc2F)cn1 | human FLAP (Homo sapiens (Human)) | 7.66 |
| Nc1cnc(-c2ccc(-c3ccccc3S(=O)(=O)NC3CCCC3)cc2F)cn1 | human FLAP (Homo sapiens (Human)) | 8.52 |
| Nc1ncc(-c2ccc(-c3ccccc3S(=O)(=O)N[C@H]3CC[C@H](O)CC3)cc2F)cn1 | human FLAP (Homo sapiens (Human)) | 7.74 |
| C[C@@H](NS(=O)(=O)c1ccccc1-c1ccc(-c2cnc(N)cn2)c(F)c1)C(F)(F)F [Example 20] | human FLAP (Homo sapiens (Human)) | 9.00 |
| NS(=O)(=O)c1ccccc1-c1ccc(-c2cnc3c(c2)OCCN3)c(F)c1 | human FLAP (Homo sapiens (Human)) | 8.10 |
| Nc1cnc(-c2ccc(-c3ccccc3S(=O)(=O)Nc3ccc(C(F)(F)F)nc3)cc2F)cn1 | human FLAP (Homo sapiens (Human)) | 9.00 |
| C[C@@H](CO)NS(=O)(=O)c1ccccc1-c1ccc(-c2ccc(N)nc2)c(F)c1 | human FLAP (Homo sapiens (Human)) | 7.11 |
| N#CC1CCN(S(=O)(=O)c2ccccc2-c2ccc(-c3cnc(N)cn3)c(F)c2)CC1 | human FLAP (Homo sapiens (Human)) | 8.70 |
| O=C1NCC[C@@H]1NS(=O)(=O)c1ccccc1-c1ccc(-c2cnc3[nH]ccc3c2)c(F)c1 | human FLAP (Homo sapiens (Human)) | 8.52 |
| CCCS(=O)(=O)c1ccccc1-c1ccc(-c2cnc(N)cn2)c(F)c1 | human FLAP (Homo sapiens (Human)) | 7.24 |
| CC(C)(C)NS(=O)(=O)c1ccccc1-c1ccc(-c2cnc3[nH]ccc3n2)c(F)c1 | human FLAP (Homo sapiens (Human)) | 9.00 |
| NC1CCN(S(=O)(=O)c2ccccc2-c2ccc(-c3cnc4[nH]ccc4n3)c(F)c2)CC1 | human FLAP (Homo sapiens (Human)) | 8.30 |
| COc1cc(NS(=O)(=O)c2ccccc2-c2ccc(-c3cnc(N)cn3)c(F)c2)nc(OC)n1 | human FLAP (Homo sapiens (Human)) | 6.79 |
| Nc1cnc(-c2ccc(-c3ccccc3S(=O)(=O)NCC3CNC3)cc2F)cn1 | human FLAP (Homo sapiens (Human)) | 7.30 |
| Nc1cnc(-c2ccc(-c3ccccc3CSc3nccc(N)n3)cc2F)cn1 [Example 237, hydrochloride] | human FLAP (Homo sapiens (Human)) | 8.10 |
| Nc1cnc(-c2ccc(-c3ccccc3S(=O)(=O)N3C[C@H](O)[C@@H](O)C3)cc2F)cn1 (relative stereo) | human FLAP (Homo sapiens (Human)) | 7.72 |
| C[Si](C)(C)CCOCSc1ccccc1-c1ccc(-c2cnc(N)cn2)c(F)c1 | human FLAP (Homo sapiens (Human)) | 7.54 |
| Nc1cnc(-c2ccc(-c3ccccc3S(=O)(=O)Nc3cccnc3)cc2F)cn1 | human FLAP (Homo sapiens (Human)) | 8.40 |
| Nc1cnc(-c2ccc(-c3ccccc3S(=O)(=O)N3CCCC(N)C3)cc2F)cn1 (racemic) | human FLAP (Homo sapiens (Human)) | 8.22 |
| Nc1ncc(-c2ccc(-c3ccccc3S(=O)(=O)N[C@H]3CCCC[C@H]3O)cc2F)cn1 (racemic) | human FLAP (Homo sapiens (Human)) | 8.30 |
| Nc1cnc(-c2ccc(-c3ccccc3S(=O)(=O)N3CCCC3)cc2F)cn1 | human FLAP (Homo sapiens (Human)) | 7.96 |
| Nc1cnc(-c2ccc(-c3ccccc3S(=O)(=O)N3CC(F)(F)C3)cc2F)cn1 | human FLAP (Homo sapiens (Human)) | 8.40 |
| CS(=O)(=O)Nc1ccccc1-c1ccc(-c2cnc(N)cn2)c(F)c1 | human FLAP (Homo sapiens (Human)) | 6.54 |
| NC(=O)C1CCN1S(=O)(=O)c1ccccc1-c1ccc(-c2cnc(N)cn2)c(F)c1 (racemic) | human FLAP (Homo sapiens (Human)) | 6.88 |
| CC(C)(C)NS(=O)(=O)c1ccccc1-c1ccc(-c2cnc3[nH]ccc3c2)c(F)c1 | human FLAP (Homo sapiens (Human)) | 9.00 |
| Nc1ncc(-c2ccc(-c3ccccc3S(=O)(=O)C3CCS(=O)(=O)CC3)cc2F)cn1 [Example 316, hydrochloride] | human FLAP (Homo sapiens (Human)) | 6.13 |
